target: Human thrombin (Homo sapiens, UniProt P00734); assay: Thrombin inhibitory assay with chromogenic substrate S-2238; format: biochemical
Ends that are not written are not given here.

substance: FFQQSGG [FFQQSGG]
target-or-test-system: Human thrombin (Homo sapiens, UniProt P00734)
IC50 [µM]: 2670

substance: SLVTKVS [SLVTKVS]
target-or-test-system: Human thrombin (Homo sapiens, UniProt P00734)
IC50 [µM]: 4350

substance: FVEIQAL [FVEIQAL]
target-or-test-system: Human thrombin (Homo sapiens, UniProt P00734)
IC50 [µM]: 530
